assay explanation: Oral bioavailability of hydromorphone conjugates
test parameters: rats, corrected value calculated based on the control (HM)
Residues, ends and D or L forms follow the SMILES beside them. *: point of attachment. X4 = CC(=O)Oc1ccc2c3c1OC1C(O*)=CCC4[C@@H](C2)N(C)CC[C@]314
// Oral Cmax % lookup, one value per entry
Write the value in % as a bare number.

Worked examples follow.
{"compound": "CC(C)[C@H](NC(=O)[C@H](CCCCN)NC(=O)[C@@H](N)CCCCN)C(=O)OC1=CCC2[C@H]3Cc4ccc(O)c5c4[C@@]2(CCN3C)C1O5 (some centres unmarked) [KKV-HM]", "Oral Cmax %, %": 60}
{"compound": "CC[C@H](C)[C@H](NC(=O)[C@H](Cc1ccccc1)NC(=O)[C@H](Cc1ccccc1)NC(=O)[C@H](Cc1ccc(O)cc1)NC(=O)[C@@H](N)Cc1ccc(O)cc1)C(=O)OC1=CCC2[C@H]3Cc4ccc(OC(C)=O)c5c4[C@@]2(CCN3C)C1O5 (some centres unmarked) [YYFFI-HM-OAc] (H-YYFFI-X4)", "Oral Cmax %, %": 40}

(Q) Given CC(C)C[C@H](NC(=O)CNC(=O)CN)C(=O)OC1=CCC2[C@H]3Cc4ccc(O)c5c4[C@@]2(CCN3C)C1O5 (some centres unmarked) [GGL-HM] , state its recorded Oral Cmax %.
(A) 43

(Q) Consider next the compound CC(C)[C@H](NC(=O)[C@H](Cc1ccccc1)NC(=O)[C@@H](N)Cc1ccccc1)C(=O)OC1=CC[C@H]2[C@H]3Cc4ccc(O)c5c4[C@@]2(CCN3C)[C@H]1O5 [FFV-HM] in the same way.
(A) 36

(Q) Consider next the compound CC(C)[C@H](NC(=O)[C@H](CCC(=O)O)NC(=O)[C@@H](N)CCC(=O)O)C(=O)OC1=CC[C@H]2[C@H]3Cc4ccc(O)c5c4[C@@]2(CCN3C)[C@H]1O5 [EEV-HM] in the same way.
(A) 50
